Target: human androgen receptor (Homo sapiens)
Construct: expressed in transfected cells; host or cells: COS-7 cells (ATCC)
Sequence (P10275 whole entry): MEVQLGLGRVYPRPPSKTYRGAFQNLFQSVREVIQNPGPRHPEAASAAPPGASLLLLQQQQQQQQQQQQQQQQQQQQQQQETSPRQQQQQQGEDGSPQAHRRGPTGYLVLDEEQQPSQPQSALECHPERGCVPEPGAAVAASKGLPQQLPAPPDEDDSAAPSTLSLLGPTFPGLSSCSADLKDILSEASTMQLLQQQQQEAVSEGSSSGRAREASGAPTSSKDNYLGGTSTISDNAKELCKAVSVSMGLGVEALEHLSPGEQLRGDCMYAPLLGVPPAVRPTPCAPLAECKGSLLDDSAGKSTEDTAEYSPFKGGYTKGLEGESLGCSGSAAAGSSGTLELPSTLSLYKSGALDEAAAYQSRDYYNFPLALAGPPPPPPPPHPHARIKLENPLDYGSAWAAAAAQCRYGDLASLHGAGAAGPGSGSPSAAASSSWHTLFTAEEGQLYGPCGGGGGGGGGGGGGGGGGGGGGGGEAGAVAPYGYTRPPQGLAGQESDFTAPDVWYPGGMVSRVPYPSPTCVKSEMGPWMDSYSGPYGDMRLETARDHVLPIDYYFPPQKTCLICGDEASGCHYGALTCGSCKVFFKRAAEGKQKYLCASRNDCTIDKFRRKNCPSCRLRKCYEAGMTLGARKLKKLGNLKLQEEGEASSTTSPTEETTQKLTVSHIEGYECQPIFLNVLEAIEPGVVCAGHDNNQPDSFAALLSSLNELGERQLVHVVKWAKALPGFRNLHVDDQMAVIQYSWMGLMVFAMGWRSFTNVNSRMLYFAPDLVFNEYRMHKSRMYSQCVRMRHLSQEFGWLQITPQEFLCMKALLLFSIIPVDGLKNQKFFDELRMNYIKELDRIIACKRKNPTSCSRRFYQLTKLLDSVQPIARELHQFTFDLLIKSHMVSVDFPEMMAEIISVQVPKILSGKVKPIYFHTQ
Experiment: Antagonist activity for AR: MMTV-luc reporter transcription in COS-7 cells transfected with human AR, stimulated with DHT
Format: cell-based
Conditions: COS-7 cells with pMMTV-luc and pEX-hAR, 1 nmol/L DHT, 24 hours; read-out: AR antagonist IC50
This listing pairs compounds with measured IC50.
Numeric answer only, unit µM assumed.

Identify the reported IC50 for the following entry. `Cc1cc(N2CCc3c(ncnc3Nc3ccc(C(C)(C)O)cn3)C2)ccc1[N+](=O)[O-]`
0.07

Identify the reported IC50 for the following entry. `N#Cc1ccc(N2CCc3c(ncnc3Nc3ccc(C4(O)COC4)c(F)n3)C2)cc1Cl`
0.12

Identify the reported IC50 for the following entry. `Cc1cc(N2CCc3c(ncnc3Nc3ccc(C(C)(C)O)cn3)C2)ccc1C#N`
0.48

Please look at the following compound next.
Identify the reported IC50 for the following entry. `CC(C)(O)c1ccc(Nc2ncnc3c2CCN(c2ccc([N+](=O)[O-])c(Cl)c2)C3)nc1`
0.032

FYI, the data here is from patent US10370372B2.
